Assay Target: ScLsb2
Assay Protocol: SPOT peptide array binding signal intensity (averaged, normalized) (arbitrary units (background-subtracted, floor 0; scale differs between SH3 domains)); higher = stronger binding of the SH3 domain to the peptide
Quantity Measured: SPOT peptide array binding signal intensity

[[record]]
binder = "LTRRFPFLFPFDTRM"
limit_sign = "≤"
reported_result = 0

[[record]]
binder = "NRARYLPQNPDIIAG"
limit_sign = "≤"
reported_result = 0

[[record]]
binder = "DKKTKPTPPPKPSHL"
limit_sign = "≤"
reported_result = 0

[[record]]
binder = "NFLRLLIGLPSQNEL"
limit_sign = "≤"
reported_result = 0

[[record]]
binder = "DFTLPPPPPPPGLDE"
limit_sign = "="
reported_result = 3.5

[[record]]
binder = "KDKSRPPRPPPKPLH"
limit_sign = "="
reported_result = 1

[[record]]
binder = "YRRKSIPFAPHQITA"
limit_sign = "="
reported_result = 25

[[record]]
binder = "FFRRSELYLPNSSKA"
limit_sign = "="
reported_result = 2

[[record]]
binder = "VSKLRSPNTPRRLRK"
limit_sign = "="
reported_result = 11.8

[[record]]
binder = "AAAPKHAPPPVPNET"
limit_sign = "≤"
reported_result = 0

[[record]]
binder = "TYNRTAFQIPGDQSI"
limit_sign = "="
reported_result = 661

[[record]]
binder = "AHFQPQRTAPKPPIS"
limit_sign = "="
reported_result = 35

